- Test system: NCI-H522 lung
- Experimental details: NCI-60 one-dose screen, 48 h
- Test settings: 10 µM unless noted
This is part of a sample that, as a whole, favours compounds with a hit. Of some 83,000 tested, about 20% had one in any assay. The source made the active and inactive calls. Rule for the calls: active = growth percent below 10; inactive = the rest.
Answer with one of the outcomes given here: 1 = active, 0 = inactive

As a guide, the following entries are already answered.
>>> cat("CCOC(=O)c1c(C)nc2c(c1N)CC(=O)N2Cc1cc(F)cc(Cl)c1")
0
>>> cat("C=C(C)[C@@H]1CC[C@]2(C(=O)OC)CC[C@]3(C)[C@H](CC[C@@H]4[C@@]5(C)C/C(=C/NC(N)=S)C(=O)C(C)(C)[C@@H]5CC[C@]43C)[C@@H]12")
0
>>> cat("CS(=O)(=O)Nc1cc(-c2ccc3ncnc(Nc4c(Cl)ccc5c4OCO5)c3c2)cnc1Cl")
1

# next molecule below
### Prompt Per the assay record, what outcome was assigned to Cc1ccc(Cc2cnc(NC(=O)c3cc(Br)cs3)s2)cc1 ?
### Response 0

* * *

- System: CCRF-CEM leukemia
- Experimental details: NCI-60 one-dose screen, 48 h (100 = growth as untreated, 0 = no growth, -100 = all killed)
- Test settings: 10 µM unless noted
About 83,000 compounds went through this panel and 20% of them were active in at least one assay; those are over-represented in the sample as a whole.
Attribute measured: growth (%)
Form entry: value (%) — number only.

A selection of reference data follows.
>>> observed_value("c1ccc(C2=NN[C@H](c3cn(-c4ccccc4)nc3-c3ccccc3)C2)cc1")
89.3
>>> observed_value("COc1cc(-c2nc(SCC(C)C)nc(Nc3cccc4ccccc34)c2C#N)cc(OC)c1OC")
75
>>> observed_value("CC(=O)N1N=C(c2ccc(Nc3nc(Nc4ccc(Cl)cc4)nc(Nc4ccc(Cl)cc4)n3)cc2)CC1c1ccco1 (centres undefined)")
92.4
>>> observed_value("COc1cc(-c2cc(-c3cccs3)c(C#N)c(N3CCOCC3)n2)cc(OC)c1OC")
38.8
>>> observed_value("C1=CN2CC(c3ccccc3)=NNC2c2ccccc21 (centres undefined)")
88.3

### Prompt // returns reported growth for input COCCn1c(-c2csc(-c3cn(C)c4ccc(OC)cc34)n2)cc2cccnc21
### Response 41.3

### Prompt // returns reported growth for input O=C(CCCCC1CCSS1)Nc1ncnc2n[nH]c(-c3ccc(Oc4ccccc4)cc3)c12 (centres undefined)
### Response 13.7

### Prompt // returns reported growth for input O=C1/C(=C/c2ccc(Cl)c(Cl)c2)CN(C(=O)C(Cl)Cl)C/C1=C\c1ccc(Cl)c(Cl)c1
### Response 4.82

### Prompt // returns reported growth for input O=C1C(Cl)=C(Nc2ccc(O)cc2)C(=O)N1Cc1ccc(Cl)cc1
### Response 4.97

* * *

- Test system: CCRF-CEM leukemia
- Experimental details: NCI-60 one-dose screen, 48 h
- Test settings: 10 µM unless noted
This is part of a sample that, as a whole, favours compounds with a hit. Of some 83,000 tested, about 20% had one in any assay. The source made the active and inactive calls. How the source made its calls: active means growth percent below 10; inactive means the rest.
Answer with one of the outcomes given here: class 1 for active, class 0 for inactive

>>> cat("Oc1c(Cl)cc(Cl)c2ccc(Cn3cc(-c4cc(F)cc(F)c4)nn3)nc12")
"class 1"
>>> cat("CCCCCCCCn1ccc2cc(NC(=O)Cn3cc(CN4CCCCC4)nn3)ccc21")
"class 0"

### Prompt Per the assay record, what outcome was assigned to Cc1nc2sc(C(=O)Nc3ccccc3)c(N)c2cc1C(=O)c1ccccc1 ?
### Response class 1

### Prompt Per the assay record, what outcome was assigned to O=C(O)c1[nH]c(=O)[nH]c(=O)c1[N+](=O)[O-] ?
### Response class 0

### Prompt Per the assay record, what outcome was assigned to O=C(/C=C(/C=C/c1cccc2[nH]ccc12)OB(F)F)/C=C/c1cccc2[nH]ccc12 ?
### Response class 1

### Prompt Per the assay record, what outcome was assigned to Cc1ccc2c3c(c(=O)[nH]c2c1)C1(C(C#N)=C(N)O3)c2cc(Br)ccc2-c2ccc(Br)cc21 ?
### Response class 0

### Prompt Per the assay record, what outcome was assigned to CCCCCCCCCCCCCCCC(N)c1ccccc1 (stereo unspecified) ?
### Response class 1

### Prompt Per the assay record, what outcome was assigned to CC(O)c1cnc(/C=C2\SC(=S)N(Cc3ccccc3)C2=O)s1 (stereo unspecified) ?
### Response class 0

### Prompt Per the assay record, what outcome was assigned to COc1cnc2c(c1)C(=O)c1c-2n(CCCNCCO)c(=O)c2ccncc12 ?
### Response class 0

Where do the numbers come from? From PubChem BioAssay (NCI).
